- ASSAY_EXPLANATION: Cytotoxicity against human TZM-bl cells harboring beta-galactosidase/luciferase reporter gene assessed as cell viability at 100 nM measured after 48 hrs by MTT assay relative to control
- Format: toxicity, cell-based
- COND: read-out: Activity
Here, each record is paired with measured viability at 48 h, 0.1 µM data.
MEASURED_PROPERTY: viability at 48 h, 0.1 µM (%)

{"columns": ["STRUCTURE_SMILES", "MEASURED_PROPERTY", "NUMBER"],
 "data": [
  ["Cc1ccc(-c2cc(Cc3noc(-c4cccc(C(F)(F)F)c4)n3)on2)cc1", "viability at 48 h, 0.1 µM", 82.1],
  ["FC(F)(F)c1cccc(-c2nc(Cc3cc(-c4cccs4)no3)no2)c1", "viability at 48 h, 0.1 µM", 88.2],
  ["FC(F)(F)c1cccc(-c2nc(Cc3cc(-c4ccc(Cl)cc4)no3)no2)c1", "viability at 48 h, 0.1 µM", 84.4],
  ["CCNC(=O)c1noc(-c2cc(C(C)C)c(O)cc2O)c1-c1ccc(CN2CCOCC2)cc1", "viability at 48 h, 0.1 µM", 92.7],
  ["COc1ccc(-c2cc(Cc3noc(-c4cccc(C(F)(F)F)c4)n3)on2)cc1", "viability at 48 h, 0.1 µM", 83],
  ["FC(F)(F)c1cccc(-c2nc(Cc3cc(-c4ccccc4)no3)no2)c1", "viability at 48 h, 0.1 µM", 84.7]
]}

----------
- ASSAY_EXPLANATION: Cytotoxicity against human CEM-GFP cells assessed as reduction in cell viability measured after 48 hrs by MTT assay
- Type: toxicity, cell-based
Here, each record is paired with measured CC50 at 48 h data.
MEASURED_PROPERTY: CC50 at 48 h (µM)

{"columns": ["STRUCTURE_SMILES", "UNITS", "NUMBER"],
 "data": [
  ["FC(F)(F)c1cccc(-c2nc(Cc3cc(-c4ccc(Cl)cc4)no3)no2)c1", "µM", 13.3],
  ["CCNC(=O)c1noc(-c2cc(C(C)C)c(O)cc2O)c1-c1ccc(CN2CCOCC2)cc1", "µM", 31.1]
]}

----------
- ASSAY_EXPLANATION: Cytotoxicity against human CEM-GFP cells assessed as cell viability at 100 nM measured after 48 hrs by MTT assay relative to control
- Type: toxicity, cell-based
- COND: read-out: Activity

{"columns": ["STRUCTURE_SMILES", "viability at 48 h, 0.1 µM, %"],
 "data": [
  ["Cc1ccc(-c2cc(Cc3noc(-c4cccc(C(F)(F)F)c4)n3)on2)cc1", 86.7],
  ["FC(F)(F)c1cccc(-c2nc(Cc3cc(-c4cccs4)no3)no2)c1", 88.3],
  ["FC(F)(F)c1cccc(-c2nc(Cc3cc(-c4ccccc4)no3)no2)c1", 95.9],
  ["COc1ccc(-c2cc(Cc3noc(-c4cccc(C(F)(F)F)c4)n3)on2)cc1", 96.6],
  ["FC(F)(F)c1cccc(-c2nc(Cc3cc(-c4ccc(Cl)cc4)no3)no2)c1", 85.1],
  ["CCNC(=O)c1noc(-c2cc(C(C)C)c(O)cc2O)c1-c1ccc(CN2CCOCC2)cc1", 94.1]
]}
